- experiment_summary: chemical genetic growth profiling, strain panel (AID 1159580);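 also: tested at 20 µM; growth read once vehicle control cultures reached saturation at 30 °C; lower values mean less growth of the strain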
- conditions: S. cerevisiae deletion strains, growth OD, locus YJL166W, strain qcr8
Hit rate of the full screen: of about 5,500 compounds, about 2,000 (36%) were called active. Roughly 18% stayed inconclusive and do not appear here. Rule as the data show it: active = normalized growth mostly below about 0.91 (no sharp cut-off); inconclusive = no clear call, values can overlap the other calls; inactive = mostly above about 0.92. The list shows a part of the results.
Hi there, use one of these labels in your reply, thanks! YES = active, NO = inactive

In: Please share the test call associated with NCC1CCC(C(=O)O)CC1 (stereo not given) .
Out: NO

In: What about Cc1cc(O)c(C=O)c(O)c1C(=O)O ?
Out: NO

In: What about CCCCNc1cc(C(=O)O)cc(S(N)(=O)=O)c1Oc1ccccc1 ?
Out: NO

In: What about C=C1C2CC[C@H]3[C@]4(C)C[C@H](OC5OC(CO)C(OS(=O)(=O)O)C(OS(=O)(=O)O)C5OC(=O)CC(C)C)C[C@@H](C(=O)O)[C@H]4CC[C@]3(C2)[C@H]1O (stereo not given in full) ?
Out: NO

In: What about CN1CCc2cc3c(cc2[C@H]1C1OC(=O)c2c1ccc1c2OCO1)OCO3 (stereo not given in full) ?
Out: NO

In: What about CCN(CC)CCNC(=O)c1cc(Br)c(N)cc1OC ?
Out: NO

In: What about CC1(C)OC(=O)NC1=O ?
Out: NO

In: What about CC(Oc1ccccc1)C(=O)N[C@@H]1C(=O)N2[C@@H]1SC(C)(C)[C@@H]2C(=O)O (stereo not given in full) ?
Out: NO

In: What about COc1cc2c(cc1OC)[C@@H]1C(=O)c3ccc4oc(C(C)C)cc4c3O[C@@H]1CO2 ?
Out: NO

In: What about CCOC(=O)c1c(C)cc(O)c(C=O)c1O ?
Out: YES
